B1: Caulobacter ParB omega fusion; a variant is named by its letters at X, in order, B8GW30 (parent)
chain: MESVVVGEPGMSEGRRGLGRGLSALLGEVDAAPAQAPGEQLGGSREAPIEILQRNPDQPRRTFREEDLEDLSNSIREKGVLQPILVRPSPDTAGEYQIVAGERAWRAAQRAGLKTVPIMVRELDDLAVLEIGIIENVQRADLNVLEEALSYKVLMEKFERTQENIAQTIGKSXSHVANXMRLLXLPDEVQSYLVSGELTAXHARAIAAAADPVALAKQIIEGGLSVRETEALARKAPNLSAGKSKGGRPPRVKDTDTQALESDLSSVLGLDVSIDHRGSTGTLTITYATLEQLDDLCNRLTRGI

Variants of: B1
assayNotes: one-hybrid fitness for binding parS DNA (scaled: cognate 1, non-cognate 0); higher = stronger binding
setupConditions: with parS DNA site
Whole data set: some 81,000 sequences, median “one-hybrid fitness for binding parS DNA” near -0.17, cut for the highest 2% near 0.51. Shown is part of a subset that was picked to be rich in the highest values.
metric: one-hybrid fitness for binding parS DNA
// return just the number, without any unit appended

Record excerpt, results attached:
RVYF :: 0.25
RGRS :: 0.932
RINC :: 0.955

The recorded one-hybrid fitness for binding parS DNA for RINM is 0.381

The recorded one-hybrid fitness for binding parS DNA for RGPS is 0.336

The recorded one-hybrid fitness for binding parS DNA for RKIN is 0.322

The recorded one-hybrid fitness for binding parS DNA for RSHS is 1

The recorded one-hybrid fitness for binding parS DNA for RIHC is 0.977

The recorded one-hybrid fitness for binding parS DNA for RGAT is 0.524

The recorded one-hybrid fitness for binding parS DNA for RESC is 0.215

The recorded one-hybrid fitness for binding parS DNA for RSSC is 0.966

The recorded one-hybrid fitness for binding parS DNA for RTHS is 0.944

The recorded one-hybrid fitness for binding parS DNA for RVSF is 0.224

The recorded one-hybrid fitness for binding parS DNA for RCSC is 0.961

The recorded one-hybrid fitness for binding parS DNA for RSSN is 0.436

The recorded one-hybrid fitness for binding parS DNA for RGHS is 0.73

The recorded one-hybrid fitness for binding parS DNA for RINF is 0.201

The recorded one-hybrid fitness for binding parS DNA for RGYS is 0.586

The recorded one-hybrid fitness for binding parS DNA for RAHN is 0.481

The recorded one-hybrid fitness for binding parS DNA for RGFT is 0.455

The recorded one-hybrid fitness for binding parS DNA for RKIG is 0.855

The recorded one-hybrid fitness for binding parS DNA for RAHS is 0.985

The recorded one-hybrid fitness for binding parS DNA for RILM is 0.333
